molecular target: STAT6 (Homo sapiens, UniProt P42226); construct: stably transfected HaCaT keratinocyte cell line, which expresses NanoLuc luciferase reporter gene under the transcriptional control of the STAT6 responsive promoter; endogenous in cells; host or cells: HaCaT keratinocyte reporter cell line (stably transfected with a NanoLuc reporter); assay: STAT6 Reporter Luciferase Assay (IL-13 stimulated HaCaT keratinocyte NanoLuc reporter cells); type: cell-based; details: IL-13 stimulated HaCaT STAT6 NanoLuc reporter cells; read-out: Reporter EC50
Sequence (P42226 whole entry): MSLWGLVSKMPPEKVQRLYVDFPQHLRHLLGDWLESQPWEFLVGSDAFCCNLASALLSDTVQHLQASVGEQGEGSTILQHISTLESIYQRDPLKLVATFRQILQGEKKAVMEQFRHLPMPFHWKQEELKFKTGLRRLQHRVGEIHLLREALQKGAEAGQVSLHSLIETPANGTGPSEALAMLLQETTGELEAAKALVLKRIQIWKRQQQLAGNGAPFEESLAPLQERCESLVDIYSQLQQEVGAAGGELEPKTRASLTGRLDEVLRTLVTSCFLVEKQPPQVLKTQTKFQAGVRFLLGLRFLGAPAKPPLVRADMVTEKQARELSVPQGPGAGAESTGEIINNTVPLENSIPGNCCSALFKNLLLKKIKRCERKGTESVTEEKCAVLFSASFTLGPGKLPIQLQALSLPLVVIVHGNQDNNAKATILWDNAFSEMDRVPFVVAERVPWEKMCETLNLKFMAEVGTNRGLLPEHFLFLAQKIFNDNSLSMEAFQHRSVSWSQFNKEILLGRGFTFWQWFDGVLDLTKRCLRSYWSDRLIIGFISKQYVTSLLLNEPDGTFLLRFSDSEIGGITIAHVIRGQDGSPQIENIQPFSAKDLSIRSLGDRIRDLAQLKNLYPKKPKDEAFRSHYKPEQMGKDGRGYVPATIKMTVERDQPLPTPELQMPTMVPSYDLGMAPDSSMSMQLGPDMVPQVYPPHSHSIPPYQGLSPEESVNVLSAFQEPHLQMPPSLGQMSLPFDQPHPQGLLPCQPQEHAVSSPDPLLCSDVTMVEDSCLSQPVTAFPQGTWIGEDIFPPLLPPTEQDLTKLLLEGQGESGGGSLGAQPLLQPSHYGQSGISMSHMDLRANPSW
readout kind: EC50 (nM)
A number alone suffices; assume nM.

Answer with reported EC50 of CC(C)n1nc(C(=O)NCc2ccc(NC(=O)N3CCC(C)(N(C)C)C3)c(F)c2)c2c1[C@@H](C)CN(c1ccc(C(=O)N(C)C)cc1)C2 (stereo partly drawn)
3

Answer with reported EC50 of CC(C)n1nc(C(=O)NCc2ccc(NC(=O)N(C)C)cc2)c2c1CCN(c1ccc(C(=O)N3CCC(O)C3)cn1)C2 (racemic)
210

Answer with reported EC50 of CCn1nc(C(=O)NCc2ccc(NC(=O)NC)cc2)c2c1[C@@H](C)CN(c1ncc(N3CCCC3=O)cn1)C2
7

====

target: STAT6 (Homo sapiens, UniProt P42226); construct: stably transfected HaCaT keratinocyte cell line, which expresses NanoLuc luciferase reporter gene under the transcriptional control of the STAT6 responsive promoter; endogenous in cells; host or cells: HaCaT keratinocyte reporter cell line (stably transfected with a NanoLuc reporter); assay: STAT6 Reporter Luciferase Assay (IL-13 stimulated HaCaT keratinocyte NanoLuc reporter cells); type: cell-based; conditions: IL-13 stimulated HaCaT STAT6 NanoLuc reporter cells; read-out: Reporter EC50
Consider the cut-off 5 nM. If the recorded EC50 is strictly smaller, the label is MET; if not, the label is NOT MET.

Lab note: EC50 threshold 5 nM. Does this compound come in strictly under it? CC(=O)N1C[C@@H]2CN(C(=O)c3ccc(N4CCc5c(c(C(=O)NCc6ccc(NC(=O)N(C)C)cc6)nn5C(C)C)C4)nc3)C[C@@H]2C1
NOT MET

Lab note: EC50 threshold 5 nM. Does this compound come in strictly under it? CC(C)n1nc(C(=O)NCc2ccc(NC(=O)N3CCC3)cc2)c2c1[C@@H](C)CN(c1ccc(C(=O)N(C)C)cn1)C2
MET

Lab note: EC50 threshold 5 nM. Does this compound come in strictly under it? CC(C)n1nc(C(=O)NCc2ccc(NC(=O)N3CCN(C)CC3)cc2)c2c1C(C(F)(F)F)CN(c1ccc(C(=O)N(C)C)cn1)C2 (racemic) [Example 701]
MET

Lab note: EC50 threshold 5 nM. Does this compound come in strictly under it? Cc1nn(C)c2c1CN(C(=O)c1ccc(N3CCc4c(c(C(=O)NCc5ccc(NC(=O)N(C)C)cc5)nn4C(C)C)C3)nc1)C2
NOT MET

Lab note: EC50 threshold 5 nM. Does this compound come in strictly under it? CC(C)n1nc(C(=O)NCc2ccc(-c3ncc[nH]3)cc2)c2c1[C@H](C)CN(c1ncc(C(=O)N(C)C)cn1)C2 (single isomer, unassigned)
NOT MET

====

Can you tell me pEC50 for the items I'm about to list?
biological target: STAT6 (Homo sapiens); construct: stably transfected HaCaT keratinocyte cell line, which expresses NanoLuc luciferase reporter gene under the transcriptional control of the STAT6 responsive promoter; endogenous in cells; host or cells: HaCaT keratinocyte reporter cell line (stably transfected with a NanoLuc reporter); assay: STAT6 Reporter Luciferase Assay (IL-13 stimulated HaCaT keratinocyte NanoLuc reporter cells); format: cell-based; conditions: IL-13 stimulated HaCaT STAT6 NanoLuc reporter cells; read-out: Reporter EC50
Friendly reminder that pEC50 comes from taking -log10 of the concentration in mol/L.

Answer with reported pEC50 of CC(C)n1nc(C(=O)NCc2ccc(NC(=O)N(C)C)cc2)c2c1CCN(c1ccc(C(=O)N3Cc4ccnn4C(C)C3)cn1)C2 (stereo not drawn)
7.34

Answer with reported pEC50 of C[C@@H]1c2c(C(=O)NCc3ccc(NC(=O)N(C)C)cc3)nn(C)c2CCN1c1ccc(C(=O)N(C)C)cn1 (single isomer, unassigned)
8.70

Answer with reported pEC50 of CCn1nc(C(=O)NCc2ccc(NC(=O)N(C)C)cn2)c2c1[C@@H](C)CN(c1ccc(C(=O)N(C)C)cn1)C2
8.22

Answer with reported pEC50 of Cc1nc2n(c1C)CCN(C(=O)c1ccc(N3CCc4c(c(C(=O)NCc5ccc(NC(=O)N(C)C)cc5)nn4C(C)C)C3)nc1)C2
7.18

Answer with reported pEC50 of CC(C)n1nc(C(=O)NCc2ccc(NC(=O)N3CCC4(CC3)CN(C)CCO4)c(F)c2)c2c1[C@@H](C)CN(c1ccc(C(=O)N(C)C)cc1)C2
9.00

Answer with reported pEC50 of Cc1cccc2c1CN(C(=O)c1ccc(N3CCc4c(c(C(=O)NCc5ccc(NC(=O)N(C)C)cc5)nn4C(C)C)C3)nc1)C2
8.70

Answer with reported pEC50 of CC(C)n1nc(C(=O)NCc2ccc(NC(=O)N3CCN(C)CC3)cc2)c2c1[C@@H](C)CN(c1ccc(-n3nccn3)cn1)C2
9.00

Answer with reported pEC50 of CC(C)n1nc(C(=O)NCc2ccc(NC(=O)N3CC4(CNC4)C3)c(F)c2)c2c1[C@@H](C)CN(c1ccc(C(=O)N(C)C)cc1)C2
7.19

Answer with reported pEC50 of Cc1nc2c(s1)CN(C(=O)c1ccc(N3CCc4c(c(C(=O)NCc5ccc(NC(=O)N(C)C)cc5)nn4C(C)C)C3)nc1)CC2
8.22

Answer with reported pEC50 of CC(C)n1nc(C(=O)NCc2ccc(NC(=O)N(C)C)cc2)c2c1C(C(F)F)CN(c1ccc(C(=O)N(C)C)cn1)C2 (single isomer, unassigned) [Example 493]
7.55

Answer with reported pEC50 of CNC(=O)c1ccc(CNC(=O)c2nn(C(C)C)c3c2CN(c2ccc(C(=O)N(C)C)cn2)C[C@@H]3C)cc1
8.40

Answer with reported pEC50 of CCn1nc(C(=O)NCc2ccc(NC(=O)N(C)C)cc2)c2c1[C@H]1CC[C@H]1N(c1ccc(C(=O)N(C)C)cn1)C2 (single isomer, unassigned) [Example 231]
8.70

Answer with reported pEC50 of COCCC1(N)CCN(C(=O)Nc2ccc(CNC(=O)c3nn(C(C)C)c4c3CN(c3ccc(C(=O)N(C)C)cc3)C[C@@H]4C)cc2)C1 (single isomer, unassigned) [Example 671]
8.52

Answer with reported pEC50 of CC(C)n1nc(C(=O)NCc2ccc(NC(=O)NCc3ccc(NC(=O)N(C)C)cc3)cc2)c2c1[C@@H](C)CN(c1ccc(C(=O)N(C)C)cn1)C2
9.52

Answer with reported pEC50 of CC(C)n1nc(C(=O)NCc2ccc(NC(=O)N3CC[C@H](CN(C)C)C3)c(F)c2)c2c1[C@@H](C)CN(c1ccc(C(=O)N(C)C)cc1)C2
8.70

Answer with reported pEC50 of CC(C)n1nc(C(=O)NCc2ccc(NC(=O)N(C)C)cc2)c2c1[C@@H](C)CN(c1ccc(C(=O)N3CCN4CCC[C@@H]4C3)cc1)C2
7.47

Answer with reported pEC50 of CCC1Cc2c(c(C(=O)NCc3ccc(NC(=O)N(C)C)cc3)nn2C(C)C)CN1c1ccc(C(=O)N(C)C)cn1 (single isomer, unassigned) [Example 268]
8.52

Answer with reported pEC50 of CC(C)n1nc(C(=O)NCc2ccc(NC(=O)N(C)C)cc2)c2c1[C@@H](C)CN(c1ccc(C(=O)O)cn1)C2
6.06

Answer with reported pEC50 of CC(C)n1nc(C(=O)NCc2ccc(NC(=O)N(C)C)cc2)c2c1CCN(c1ccc(C(=O)N3CC(=O)NC(C)(C)C3)cn1)C2
6.02

Answer with reported pEC50 of CC(C)n1nc(C(=O)NCc2ccc(NC(=O)N(C)C)cc2)c2c1CCN(c1ccc(C(=O)N3CCc4oncc4C3)cn1)C2
6.73

Answer with reported pEC50 of CC(C)n1nc(C(=O)NCc2ccc(NC(=O)N3CC4(CCCN(C)C4)C3)cc2)c2c1[C@@H](C)CN(c1ccc(C(=O)N(C)C)cc1)C2
9.00

Answer with reported pEC50 of CC(C)n1nc(C(=O)NCc2ccc(NC(=O)N3CCC(F)(F)C3)cc2)c2c1[C@@H](C)CN(c1ccc(C(=O)N(C)C)cn1)C2
9.40

Answer with reported pEC50 of Cc1cnc2c(c1)CN(C(=O)c1ccc(N3CCc4c(c(C(=O)NCc5ccc(NC(=O)N(C)C)cc5)nn4C(C)C)C3)nc1)CC2
7.82

Answer with reported pEC50 of CCn1nc(C(=O)NCc2ccc(NC(=O)N(C)C)cc2)c2c1[C@@H](C)[C@H](C)N(c1ncc(C(=O)N(C)C)cn1)C2 (single isomer, unassigned)
9.40
